In this section we review reported diameter of the inhibition zone (DIZ) values for a set of compounds.
Test system: Escherichia coli
METHOD_NOTES: Antibacterial activity against Escherichia coli ATCC 25922 assessed as growth inhibition after 24 hr by disk diffusion assay
Format: functional
API: value field is a number in mm; no unit string.

Example results:
| SMI | MEASURED |
| --- | --- |
| Cc1cc(O)c(C(c2c(O)cc(C)oc2=O)c2coc3ccccc3c2=O)c(=O)o1 | 18.6 |
| O=c1oc2ccccc2c(O)c1C(c1c(O)c2ccccc2oc1=O)c1coc2ccccc2c1=O | 22.1 |
| Cc1cc2oc(=O)c(C(c3c(O)c4cc(C)c(C)cc4oc3=O)c3coc4ccccc4c3=O)c(O)c2cc1C | 20.8 |

Here is another compound to look at.
I have this compound here, "Cc1[nH]n(-c2ccccc2)c(=O)c1C(c1coc2ccccc2c1=O)c1c(C)[nH]n(-c2ccccc2)c1=O" , and I need its recorded diameter of the inhibition zone (DIZ).
15.5
